- testTarget: human 5-HT1A receptor (Homo sapiens, UniProt P08908)
- Construct: host or cells: HEK293T
- Sequence (P08908 1-422): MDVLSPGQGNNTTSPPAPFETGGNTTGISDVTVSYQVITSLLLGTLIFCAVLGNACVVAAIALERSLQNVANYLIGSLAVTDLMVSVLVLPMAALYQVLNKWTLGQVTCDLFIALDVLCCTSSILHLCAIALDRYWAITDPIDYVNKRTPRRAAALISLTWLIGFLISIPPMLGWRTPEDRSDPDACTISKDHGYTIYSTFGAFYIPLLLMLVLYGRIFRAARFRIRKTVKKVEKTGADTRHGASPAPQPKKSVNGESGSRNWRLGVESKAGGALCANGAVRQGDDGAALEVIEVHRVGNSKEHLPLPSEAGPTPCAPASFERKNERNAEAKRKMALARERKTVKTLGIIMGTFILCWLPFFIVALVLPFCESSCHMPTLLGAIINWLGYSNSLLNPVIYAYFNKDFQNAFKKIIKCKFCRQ
- test: cAMP accumulation (LANCE Ultra TR-FRET) in HEK293T cells, WT 5-HT1A
- Assay type: cell-based
- assayConditions: HEK-293T; read-out: 5-HT1A EMAX (%)
observedProperty: Emax
Field note: include the unit after the figure.

// solved cases for Emax follow
{"molecule": "Fc1ccccc1-c1cccc2c1CC[C@H](N1CCNCC1)C2 [FPIP]", "Emax": "95%"}
{"molecule": "O=C1CC2(CCCC2)CC(=O)N1CCCCN1CCN(c2ncccn2)CC1 [Buspirone, buspirone, reference compound]", "Emax": "75%"}
{"molecule": "CN(C)[C@H]1CCc2c(cccc2-c2cccc3c2oc2ccccc23)C1 [DBZ]", "Emax": "93%"}
{"molecule": "Fc1ccccc1-c1cccc2c1CC[C@H](N1CCCC1)C2 [(S)-PFPT]", "Emax": "100%"}

Switching to the query record.
Reported Emax ( Cc1ccc(CNCC2(F)CCN(C(=O)c3ccc(F)c(Cl)c3)CC2)nc1 [NLX-112, reference compound] ) = 100%

* * *

- testTarget: human 5-HT1D receptor (Homo sapiens)
- Construct: host or cells: HEK293T
- Sequence (P28221 whole entry): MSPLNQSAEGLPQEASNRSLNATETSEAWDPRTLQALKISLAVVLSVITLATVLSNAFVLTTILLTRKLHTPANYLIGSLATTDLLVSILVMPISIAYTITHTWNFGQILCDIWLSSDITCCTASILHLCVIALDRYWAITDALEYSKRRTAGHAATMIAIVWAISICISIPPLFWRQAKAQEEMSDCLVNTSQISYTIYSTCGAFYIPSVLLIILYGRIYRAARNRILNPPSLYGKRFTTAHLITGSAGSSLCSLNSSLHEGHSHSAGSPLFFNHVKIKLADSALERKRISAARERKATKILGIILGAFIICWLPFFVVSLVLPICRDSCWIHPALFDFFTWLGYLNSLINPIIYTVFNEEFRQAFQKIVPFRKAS
- test: cAMP accumulation (LANCE Ultra TR-FRET) in HEK293T cells, WT 5-HT1D
- Format: cell-based
- assayConditions: 5-HT1D pEC50, WT receptor; cAMP accumulation, HEKt cells; mean ± SD
EC50 values, listed per item
Hi! Could you send only the number? It should be in nM, unit omitted.

// solved cases for EC50 follow
{"compound": "CN(C)[C@H]1CCc2c(cccc2-c2ccccc2)C1 [(S)-5-PAT]", "observedProperty": "EC50", "recordedResult": 0.741}
{"compound": "CN(C)[C@H]1CCc2c(cccc2-c2ccco2)C1 [(S)-FAT]", "observedProperty": "EC50", "recordedResult": 12}
{"compound": "CN(C)[C@H]1CCc2c(cccc2-c2cccs2)C1 [(S)-TAT]", "observedProperty": "EC50", "recordedResult": 41.7}
{"compound": "CN(C)[C@H]1CCc2c(cccc2-c2cccc3ccccc23)C1 [(S)-NAP]", "observedProperty": "EC50", "recordedResult": 8.71}

Switching to the query record.
EC50 value, target or system human 5-HT1D receptor (Homo sapiens), for `CN(C)[C@H]1CCc2c(cccc2-c2c(F)cccc2F)C1` : 1.66

* * *

- testTarget: human 5-HT1B receptor (Homo sapiens, UniProt P28222)
- Construct: host or cells: HEK293T
- Sequence (P28222 whole entry): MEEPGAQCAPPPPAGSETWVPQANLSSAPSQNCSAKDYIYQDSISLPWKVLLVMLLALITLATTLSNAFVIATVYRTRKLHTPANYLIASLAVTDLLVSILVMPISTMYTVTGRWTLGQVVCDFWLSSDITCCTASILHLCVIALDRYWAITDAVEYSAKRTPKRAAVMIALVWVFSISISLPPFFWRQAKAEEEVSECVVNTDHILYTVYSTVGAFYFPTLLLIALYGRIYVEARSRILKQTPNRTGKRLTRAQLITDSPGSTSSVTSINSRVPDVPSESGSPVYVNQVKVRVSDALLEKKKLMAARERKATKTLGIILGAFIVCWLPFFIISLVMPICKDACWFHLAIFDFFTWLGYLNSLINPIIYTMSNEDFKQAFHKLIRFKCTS
- test: Radioligand binding (saturation and competition), WT 5-HT1B
- assayConditions: Affinity (pKi ± SD) 5-HT1B, WT receptor; [^3H]5-CT competition; mean ± SD
observedProperty: Ki (nM)
Hi! Could you send only the number? It should be in nM, unit omitted.

{"compound": "CN(C)[C@@H]1CCc2c(cccc2-c2ccccc2)C1 [(R)-5-PAT]", "testTarget": "human 5-HT1B receptor (Homo sapiens, UniProt P28222)", "outputUnit": "nM", "Ki": 1320}
{"compound": "CN(C)[C@@H]1CCc2c(cccc2-c2ccccc2Cl)C1 [(R)-CPT]", "testTarget": "human 5-HT1B receptor (Homo sapiens, UniProt P28222)", "outputUnit": "nM", "Ki": 72.4}
{"compound": "CN(C)[C@@H]1CCc2c(cccc2-c2ccco2)C1 [(R)-FAT]", "testTarget": "human 5-HT1B receptor (Homo sapiens, UniProt P28222)", "outputUnit": "nM", "Ki": 550}

Reported Ki ( CN(C)[C@@H]1CCc2c(cccc2-c2cccc3ccccc23)C1 [(R)-NAP] ) = 155

* * *

- testTarget: human 5-HT1A receptor (Homo sapiens, UniProt P08908)
- Construct: host or cells: HEK293T
- Sequence (P08908 1-422): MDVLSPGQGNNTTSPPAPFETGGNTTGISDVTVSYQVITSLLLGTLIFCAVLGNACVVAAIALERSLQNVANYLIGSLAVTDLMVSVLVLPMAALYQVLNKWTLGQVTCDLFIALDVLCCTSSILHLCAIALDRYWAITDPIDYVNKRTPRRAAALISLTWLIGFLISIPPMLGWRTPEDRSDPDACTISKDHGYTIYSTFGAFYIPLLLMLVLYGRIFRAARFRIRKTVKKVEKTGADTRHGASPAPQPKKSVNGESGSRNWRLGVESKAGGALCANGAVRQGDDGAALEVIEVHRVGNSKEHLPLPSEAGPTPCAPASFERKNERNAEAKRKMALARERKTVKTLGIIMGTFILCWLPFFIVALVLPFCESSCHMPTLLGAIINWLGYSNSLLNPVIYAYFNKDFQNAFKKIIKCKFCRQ
- test: cAMP accumulation (LANCE Ultra TR-FRET) in HEK293T cells, WT 5-HT1A
- Format: cell-based
- assayConditions: HEK-293T, read-out: 5-HT1A EMAX (%), WT receptor; normalized to basal (0%) and 10 μM 5-CT (100%)
- Experimental: Briefly, cells transfected with the desired receptor construct and compounds were incubated in the dark for 90 min at 37 °C. After incubation, cAMP detection reagents were added, and TR-FRET was used to quantify the cAMP produced. The functional activity of compounds was determined by stimulating cells expressing the desired receptor with FSK and test compound in parallel with 12 known concentrations of cAMP. […]
observedProperty: Emax (%)
Hi! Could you send only the number? It should be in %, unit omitted.

{"compound": "O=C1CCc2ccc(OCCCCN3CCN(c4cccc(Cl)c4Cl)CC3)cc2N1 [Aripiprazole, aripiprazole, reference compound]", "testTarget": "human 5-HT1A receptor (Homo sapiens, UniProt P08908)", "recordedResult": 96}

Reported Emax ( CN(C)[C@H]1CCc2c(cccc2-c2ccco2)C1 [(S)-FAT] ) = 92

* * *

- testTarget: V45.52I 5-HT1D receptor (Homo sapiens, UniProt P28221, V190I)
- Sequence (P28221 whole entry V190I): as the sequence (P28221 whole entry) above, with V190I counted along it
- test: Radioligand binding, V45.52I 5-HT1D
Ki values, listed per item
Hi! Could you send only the number? It should be in nM, unit omitted.

// solved cases for Ki follow
{"compound": "CN(C)[C@H]1CCc2c(cccc2-c2cccc3ccccc23)C1 [(S)-NAP]", "Ki / nM": 37.2}
{"compound": "Fc1ccccc1-c1cccc2c1CC[C@H](N1CCCC1)C2 [(S)-PFPT]", "Ki / nM": 14.8}

Switching to the query record.
Reported Ki ( CN(C)[C@H]1CCc2c(cccc2-c2ccccc2F)C1 [(S)-FPT] ) = 1.05

* * *

- testTarget: Y5.38F 5-HT1A receptor (Homo sapiens, UniProt P08908, Y195F)
- test: Radioligand binding, Y5.38F 5-HT1A
observedProperty: Ki (nM)
Hi! Could you send only the number? It should be in nM, unit omitted.

{"compound": "Fc1ccccc1-c1cccc2c1CC[C@H](N1CCCC1)C2 [(S)-PFPT]", "testTarget": "Y5.38F 5-HT1A receptor (Homo sapiens, UniProt P08908, Y195F)", "observedProperty": "Ki", "recordedResult": 1.74}

Reported Ki ( CN(C)[C@H]1CCc2c(cccc2-c2cccc3ccccc23)C1 [(S)-NAP] ) = 60.3

* * *

- testTarget: V45.52I 5-HT1B receptor (Homo sapiens, UniProt P28222, V201I)
- Sequence (P28222 whole entry V201I): as the sequence (P28222 whole entry) above, with V201I counted along it
- test: Radioligand binding, V45.52I 5-HT1B
observedProperty: pKi
Please note pKi is a logarithmic value: minus log10 of concentration in mol/L. Answer with that number alone.

// solved cases for pKi follow
{"compound": "CN(C)[C@H]1CCc2c(cccc2-c2cccc3ccccc23)C1 [(S)-NAP]", "observedProperty": "pKi", "recordedResult": 7.38}
{"compound": "CN(C)[C@H]1CCc2c(cccc2-c2ccccc2F)C1 [(S)-FPT]", "observedProperty": "pKi", "recordedResult": 8.72}

Reported pKi ( Fc1ccccc1-c1cccc2c1CC[C@H](N1CCCC1)C2 [(S)-PFPT] ) = 7.84

* * *

- testTarget: human 5-HT1B receptor (Homo sapiens)
- Construct: host or cells: HEK293T
- test: Radioligand binding (saturation and competition), WT 5-HT1B
- assayConditions: Affinity (pKi ± SD) 5-HT1B, WT receptor; [^3H]5-CT competition; mean ± SD
Ki values, listed per item
Hi! Could you send only the number? It should be in nM, unit omitted.

// solved cases for Ki follow
{"compound": "CCCN(CCC)[C@@H]1CCc2c(cccc2-c2ccccc2Cl)C1 [(R)-DCPT]", "testTarget": "human 5-HT1B receptor (Homo sapiens)", "Ki / nM": 55}
{"compound": "CN(C)[C@H]1CCc2c(cccc2-c2ccco2)C1 [(S)-FAT]", "testTarget": "human 5-HT1B receptor (Homo sapiens)", "Ki / nM": 132}

Reported Ki ( CN(C)[C@@H]1CCc2c(cccc2-c2ccccc2F)C1 [(R)-FPT] ) = 240

Reported Ki ( CCCN(CCC)[C@H]1CCc2c(cccc2-c2ccccc2F)C1 [(S)-DFPT] ) = 2
